Source: ChEMBL document CHEMBL3137667

Exercise: state measured Hepatotoxicity (acute) for each of the compounds provided.
experiment: Highest frequency of acute liver toxicity observed during clinical trials, expressed as a percentage. [column '% AIGUE' in source]; details: human
Answer format reminder: number followed by unit.

Entry under test: `O=C(O)Cc1cn(-c2ccccc2)nc1-c1ccc(Cl)cc1` . Its Hepatotoxicity (acute) was 1.3%

// CC(=O)O[C@H]1CC[C@H]2[C@@H]3CC[C@H]4CC(=O)C=C(C)[C@]4(C)[C@H]3CC[C@]12C [METHENOLONE ACETATE] : Hepatotoxicity (acute) value = 0%

Memo: `CN[C@@H]1[C@H](O)[C@H](NC)[C@H]2O[C@@]3(O)C(=O)C[C@@H](C)O[C@H]3O[C@@H]2[C@H]1O` , reported Hepatotoxicity (acute): 0%

Lookup result for CCOP(=O)(OCC)C(C)NC(=O)N(CCCl)N=O (centres undefined) ; measured Hepatotoxicity (acute): 0%

----------
Task for the reader: assign each of the following compounds its reported Hepatotoxicity (malignant tumour).
details: human
// return just the number, without any unit appended

Consider `Clc1ccc2nsnc2c1NC1=NCCN1` . Its measured Hepatotoxicity (malignant tumour) is 0

GET /value?item= `COc1cccc2c1C(=O)c1c(O)c3c(c(O)c1C2=O)C[C@@](O)(C(=O)CO)C[C@@H]3O[C@H]1C[C@H](N)[C@H](O[C@@H]2CCCCO2)[C@H](C)O1` &field=Hepatotoxicity (malignant tumour) returns 0

Recorded Hepatotoxicity (malignant tumour) (compound `CC(=O)O[C@H]1C[C@@]2(C)[C@@H](C[C@@H](O)[C@H]3[C@@]4(C)CC[C@@H](O)[C@@H](C)[C@@H]4CC[C@@]32C)/C1=C(\CCC=C(C)C)C(=O)O` ): 0

So, COCCCN1CCC(NC(=O)c2cc(Cl)c(N)c3c2OCC3)CC1 [PRUCALOPRIDE] ? Its Hepatotoxicity (malignant tumour) was 0

# Hepatotoxicity (malignant tumour) of CC(NCCc1ccc(O)cc1)C(O)c1ccc(O)cc1 (stereo not drawn) = 0

For reference, reported Hepatotoxicity (malignant tumour) for `CC(C)C[C@H]1C(=O)N2CCC[C@H]2[C@]2(O)O[C@](NC(=O)[C@@H]3C=C4c5cccc6[nH]c(Br)c(c56)C[C@H]4N(C)C3)(C(C)C)C(=O)N12` stands at 0

Lookup result for `COC(=O)C1=C(C)NC(C)=C(C(=O)OC)C1c1ccccc1[N+](=O)[O-]` ; measured Hepatotoxicity (malignant tumour): 0

Sure, the documented Hepatotoxicity (malignant tumour) for `CN1CCN(CCCN2c3ccccc3Sc3ccccc32)CC1` is 0

----------
details: human
quantity name: Hepatotoxicity (cytolytic)
// response body must contain only the number

Entry CC(C)(C)NCC(O)c1cc(O)cc(O)c1 (centres undefined) , Hepatotoxicity (cytolytic) reported as 2

Note to self: Hepatotoxicity (cytolytic) recorded for `C[C@@H]1O[C@@H]1P(=O)(O)O` was 1

// sample `CC(C)(C)NC(=O)[C@@H]1CN(Cc2cccnc2)CCN1C[C@@H](O)C[C@@H](Cc1ccccc1)C(=O)N[C@H]1c2ccccc2C[C@H]1O.O` , its Hepatotoxicity (cytolytic) was 8

Looking up `O=c1[nH]cc(F)c(=O)[nH]1` , I found its Hepatotoxicity (cytolytic) recorded as 2

Per the record, `COc1ccc(CN2CCNCC2)c(OC)c1OC` has Hepatotoxicity (cytolytic) of 0

Given item `CC1(C)S[C@@H]2[C@H](NC(=O)[C@H](C(=O)O)c3ccsc3)C(=O)N2[C@H]1C(=O)O` , the value recorded as its Hepatotoxicity (cytolytic) is 0

Memo: `C[C@@H](O)[C@H]1C(=O)N2C(C(=O)O)=C(S[C@@H]3CN[C@H](C(=O)N(C)C)C3)[C@H](C)[C@H]12` , reported Hepatotoxicity (cytolytic): 0

So, `COc1cc2nc(N3CCN(C(=O)c4ccco4)CC3)nc(N)c2cc1OC` ? Its Hepatotoxicity (cytolytic) was 0

Entry CC(NC(C)(C)C)C(=O)c1cccc(Cl)c1 (centres undefined) , Hepatotoxicity (cytolytic) reported as 4

Hepatotoxicity (cytolytic) in this record for `Cc1cc(NS(=O)(=O)c2ccc(N)cc2)nc(C)n1` : 0

Entry under test: `CC(/C=N/NC(=N)N)=N\NC(=N)N` . Its Hepatotoxicity (cytolytic) was 0

Sample `CN(C)CCc1c[nH]c2ccc(C[C@H]3COC(=O)N3)cc12` ; Hepatotoxicity (cytolytic) observed: 0

// Hepatotoxicity (cytolytic) lookup, molecule = `Cc1cc(C(=O)NNCc2ccccc2)no1` , result: 4

Entry `CCN(CC)CCOc1ccc(C(=C(Cl)c2ccccc2)c2ccccc2)cc1` , Hepatotoxicity (cytolytic) reported as 1

Value of measured Hepatotoxicity (cytolytic) for the entry `O=P(O)(O)C(Sc1ccc(Cl)cc1)P(=O)(O)O` : 0

Hepatotoxicity (cytolytic) recorded for this molecule, CCOC(=O)C(C)(CC)Oc1ccc(Cc2ccc(Cl)cc2)cc1 (centres undefined) [BECLOBRATE] , is 1

Reported Hepatotoxicity (cytolytic) for `O=C(CCCN1CCC(O)(c2ccc(Cl)cc2)CC1)c1ccc(F)cc1` was 4

For this molecule ( `CO/N=C(\C(=O)N[C@@H]1C(=O)N2C(C(=O)[O-])=C(C[N+]3(C)CCCC3)CS[C@H]12)c1csc(N)n1` ), measured Hepatotoxicity (cytolytic) is 0

Hepatotoxicity (cytolytic) recorded for this molecule, `[H]/N=C(\N/C(=N/[H])Nc1ccc(Cl)cc1)NC(C)C` , is 1

GET /value?item= O=C(Cn1c(=O)sc2ccc(Cl)cc21)N1CCN(CCO)CC1 [TIARAMIDE] &field=Hepatotoxicity (cytolytic) returns 1

The value of Hepatotoxicity (cytolytic) measured for the molecule `COc1ccc(CCN(C)CCCOc2ccc(S(=O)(=O)c3c(C(C)C)cn4ccccc34)cc2)cc1OC` turned out to be 0

The measured Hepatotoxicity (cytolytic) associated with `c1ccc(C2(N3CCCCC3)CCCCC2)cc1` reads 2

Lookup result for `O=C1CN(/N=C/c2ccc(-c3ccc([N+](=O)[O-])cc3)o2)C(O)=N1` ; measured Hepatotoxicity (cytolytic): 10

Reported Hepatotoxicity (cytolytic) of `C1CC1` : 3

Reported Hepatotoxicity (cytolytic) of `CO[C@H]1Cc2c(O)cc(O)cc2O[C@@H]1c1ccc(O)c(O)c1` : 0

Note to self: Hepatotoxicity (cytolytic) recorded for `CCc1oc2ccccc2c1C(=O)c1cc(Br)c(O)c(Br)c1` was 5

molecule `CO/N=C(\C(=O)N[C@@H]1C(=O)N2C(C(=O)[O-])=C(C[n+]3cccc4c3CCC4)CS[C@H]12)c1csc(N)n1` , Hepatotoxicity (cytolytic) observed: 0

Value of measured Hepatotoxicity (cytolytic) for the entry `C[C@H]1COc2c(C3(N)CC3)c(F)cc3c(=O)c(C(=O)O)cn1c23` : 0

Looking up `Cc1nc2ccc(CN(C)c3ccc(C(=O)N[C@@H](CCC(=O)O)C(=O)O)s3)cc2c(=O)[nH]1` , I found its Hepatotoxicity (cytolytic) recorded as 7

Entry CNC1(c2ccccc2Cl)CCCCC1=O (centres undefined) , Hepatotoxicity (cytolytic) reported as 0

Kindly note the recorded Hepatotoxicity (cytolytic) for `O=C(O)c1nn(Cc2ccc(Cl)cc2Cl)c2ccccc12` , which is 0

Hepatotoxicity (cytolytic) in this record for `Cc1cnc(NC(=O)C2=C(O)c3ccccc3S(=O)(=O)N2C)s1` : 0

The molecule listed as `CSc1ccc(C(=O)c2[nH]c(=O)[nH]c2C)cc1` has a reported Hepatotoxicity (cytolytic) of 0

Noted for CCN(CC)CCCC(C)Nc1ccnc2cc(Cl)ccc12 (centres undefined) : its Hepatotoxicity (cytolytic) reads 4

Form field Hepatotoxicity (cytolytic), entry NC(=O)NO [HYDROXYUREA] : 3

The recorded Hepatotoxicity (cytolytic) for `[Se]` is 0

Per the records, this molecule ( CSc1ccc2c(c1)N(CCC1CCCCN1C)c1ccccc1S2 (centres undefined) ) has Hepatotoxicity (cytolytic) equal to 2

Hepatotoxicity (cytolytic) reading for `CN1CCN(C2=Nc3cc(Cl)ccc3Nc3ccccc32)CC1` : 8

The measured Hepatotoxicity (cytolytic) associated with Cc1ccc(S(=O)(=O)NC(=O)NN2CCCCCC2)cc1 [TOLAZAMIDE] reads 5

----------
Give Hepatotoxicity (chronic liver disease) for every item shown.
conditions: human, serum, 4383 h
Write the number on its own, no unit after it.

Form: compound = COCCCC/C(=N\OCCN)c1ccc(C(F)(F)F)cc1 [FLUVOXAMINE] ; Hepatotoxicity (chronic liver disease) = 0

Hepatotoxicity (chronic liver disease) reported for this compound CN1CCN(C(c2ccccc2)c2ccccc2)CC1 [CYCLIZINE] : 0

Please fill in: Hepatotoxicity (chronic liver disease) reported for CC(C)Nc1cccnc1N1CCN(C(=O)c2cc3cc(NS(C)(=O)=O)ccc3[nH]2)CC1 [DELAVIRDINE] = 0

Form: compound = CCC1(c2ccccc2)C(=O)NC(=O)NC1=O [PHENOBARBITAL] ; Hepatotoxicity (chronic liver disease) = 1

According to the records, this compound CN(C)CCCN1c2ccccc2C(C)(C)c2ccccc21 [DIMETACRINE] displays Hepatotoxicity (chronic liver disease) of 0

Value of measured Hepatotoxicity (chronic liver disease) for the entry CC1(C)S[C@@H]2[C@H](NC(=O)[C@H](C(=O)O)c3ccsc3)C(=O)N2[C@H]1C(=O)O [TICARCILLIN] : 0

Hepatotoxicity (chronic liver disease) in this record for O=C1Nc2ccc(Cl)cc2C(c2ccccc2)=NC1O (centres undefined) [OXAZEPAM] : 0

N=C(N)c1ccc(/C=C/c2ccc(C(=N)N)cc2)cc1 [STILBAMIDINE] yielded Hepatotoxicity (chronic liver disease) of 0

The compound Cc1nc2n(c(=O)c1CCN1CCC(c3noc4cc(F)ccc34)CC1)CCCC2 [RISPERIDONE] showed Hepatotoxicity (chronic liver disease) equal to 0

Entry COc1ccc2c(C(=O)c3ccc(Cl)cc3)c(C)n(CC(=O)O)c2c1 [CLOMETACIN] ; Hepatotoxicity (chronic liver disease) = 21

Just so you know, measured Hepatotoxicity (chronic liver disease) for CN1C(=O)OC(C)(C)C1=O [TRIMETHADIONE] came out at 0

For reference, reported Hepatotoxicity (chronic liver disease) for COc1ccc(CCN(C)CCCC(C#N)(c2cc(OC)c(OC)c(OC)c2)C(C)C)cc1OC (centres undefined) [GALLOPAMIL] stands at 0

The reported value for CC(C)(Oc1ccc(C2CC2(Cl)Cl)cc1)C(=O)O (centres undefined) [CIPROFIBRATE] in terms of Hepatotoxicity (chronic liver disease) is 1

The measured Hepatotoxicity (chronic liver disease) associated with CCCCCCCCNC(C)C(O)c1ccc(SC(C)C)cc1 (centres undefined) [SULOCTIDIL] reads 1

For record CCC(COC(=O)c1cc(OC)c(OC)c(OC)c1)(c1ccccc1)N(C)C (centres undefined) [TRIMEBUTINE] the listed Hepatotoxicity (chronic liver disease) is 0

# Hepatotoxicity (chronic liver disease) (compound: Nc1ccc(S(=O)(=O)c2ccc(N)cc2)cc1 [DAPSONE] ) is 0

Memo: CC(=O)Oc1cccc2c1C(=O)c1c(OC(C)=O)cc(C(=O)O)cc1C2=O [DIACEREIN] , reported Hepatotoxicity (chronic liver disease): 0

Form field Hepatotoxicity (chronic liver disease), entry CC(C)[C@H](N)C(=O)OCCOCn1cnc2c(=O)[nH]c(N)nc21 [VALACYCLOVIR] : 0

Field Hepatotoxicity (chronic liver disease) (entry CC(NCCc1ccc(O)cc1)C(O)c1ccc(O)cc1 (centres undefined) [RITODRINE] ) reads 0
